# test-system: Ras farnesyl transferase (Rattus norvegicus, UniProt Q02293+Q04631)
# Construct: endogenous in cells; host or cells: Rat2 fibroblasts transformed with H-Ras or with an H-Ras/K-Ras C-terminus fusion
# method-notes: In vivo (cellular) inhibitory activity for Ras farnesyl transferase, Rat2 cell line which expresses C-Harvey-Ras protein
# Format: cell-based
# settings: Rat2 cell line expressing C-Harvey-Ras; concentration inhibiting 50% of farnesyl bonding of Ras protein; read-out: H-Ras CIC50
# Description: In the present experiment, Rat2 cell line which expresses C-Harvey-Ras protein having transforming activity and Rat2 cell line (Korean patent application No. 97-14409) which is transformed with fused protein of H-Ras substituted with polybasic lysine domain at C-terminus of K-Ras were used. The experiment was performed by the modified Declue's method (Declue. J. E. et al., Cancer Research, 1991, 51, 712). Hereinafter, the experimental method will be described in more detail. […]
Listed molecules paired with reported pIC50
Just so you know, pIC50 here is -log10 of the concentration in molar units; reply with that number alone.

Here is how some molecules turned out for pIC50.
molecule	measured-parameter	endpoint-result
COCCN(C)C(=O)c1cn(Cc2cncn2[C@@H](C)c2ccccc2)cc1-c1cccc2ccccc12 [Compound 11]	pIC50	7.60
COc1ccccc1CCn1cncc1Cn1cc(C(=O)N2CCN(C)CC2)c(-c2cccc3ccccc23)c1 [Compound 18]	pIC50	7.60

Form field: reported pIC50 of O=C(c1cn(Cc2c[nH]cn2)cc1-c1cccc2ccccc12)N1CCSCC1 [Compound 86]
5.70

And the next one, CN1CCN(C(=O)c2cn(Cc3cncn3CCc3cccc(Cl)c3)cc2-c2cccc3ccccc23)CC1 [Compound 26] ?
7.82

* * *

# test-system: Ras farnesyl transferase (Homo sapiens, UniProt P49354+P49356)
# Construct: made in house
# method-notes: In vitro inhibitory activity for Ras farnesyl transferase, K-Ras substrate
# Format: biochemical
# settings: in vitro farnesyl transferase assay, K-Ras; read-out: K-Ras IC50
measured-parameter: pIC50
Just so you know, pIC50 here is -log10 of the concentration in molar units; reply with that number alone.

Form field: reported pIC50 of COCCN(C)C(=O)c1cn(Cc2cncn2CCc2ccc3ccccc3c2)cc1-c1cccc2ccccc12 [Compound 41]
8.40

And the next one, COCCN(C)C(=O)c1cn(Cc2cncn2CCc2ccc(Br)cc2)cc1-c1cccc2ccccc12 [Compound 33] ?
8.52

And the next one, COc1ccc(CCn2cncc2Cn2cc(C(=O)N3CCN(C)CC3)c(-c3cccc4ccccc34)c2)cc1 [Compound 20] ?
8.70

And the next one, O=C(c1cccc(Br)c1)c1cn(Cc2c[nH]cn2)cc1-c1cccc2ccccc12 [Compound 48] ?
5.00

And the next one, COCCN(C)C(=O)c1cn(Cc2cncn2Cc2ccc(Br)cc2)nc1-c1cccc2ccccc12 [Compound 154] ?
6.70

And the next one, O=C(c1nc(Cc2cncn2Cc2ccc(Cl)cc2)sc1-c1cccc2ccccc12)N1CCOCC1 [Compound 146] ?
5.00

And the next one, Cn1cnc(Cn2cc(C(=O)c3ccc(Oc4ccccc4)cc3)c(-c3cccc4ccccc34)c2)c1 [Compound 79] ?
7.00

And the next one, CSCC[C@H](NC(=O)c1cn(Cc2cncn2Cc2ccc(C#N)cc2)cc1-c1cccc2ccccc12)C(=O)O [Compound 101] ?
6.10

And the next one, COCCN(C)C(=O)c1cn(Cc2cncn2[C@@H](C)c2ccccc2)cc1-c1cccc2ccccc12 [Compound 11] ?
8.10

And the next one, C[C@@H](c1ccccc1)n1cncc1Cn1cc(C(=O)N2CCN(C)CC2)c(-c2cccc3ccccc23)c1 [Compound 13] ?
8.30

And the next one, O=C(NCc1ccccc1)c1cn(Cc2c[nH]cn2)cc1-c1cccc2ccccc12 [Compound 83] ?
4.73

* * *

Listed compounds paired with reported IC50
# test-system: Ras farnesyl transferase (Homo sapiens, UniProt P49354+P49356)
# Construct: made in house
# method-notes: In vitro inhibitory activity for Ras farnesyl transferase, H-Ras substrate
# Assay type: biochemical
# settings: recombinant farnesyl transferase 4.5 nM, Ras substrate protein 1.5 μM, tritium-farnesylpyrophosphate 0.15 μM, 30 minutes at 37° C.; read-out: H-Ras IC50
Just the number in µM, nothing appended.

Here is how some compounds turned out for IC50.
compound	IC50 / µM
COCCN(C)C(=O)c1cn(Cc2cncn2Cc2ccc3c(c2)OCO3)cc1-c1cccc2ccccc12 [Compound 1]	0.0011
COc1ccccc1CCn1cncc1Cn1cc(C(=O)N2CCN(C)CC2)c(-c2cccc3ccccc23)c1 [Compound 18]	0.001
COCCN(C)C(=O)c1cn(Cc2cncn2CC2CCN(C(=O)OCc3ccccc3)CC2)nc1-c1cccc2ccccc12 [Compound 152]	0.023
COCCN(C)C(=O)c1cn(Cc2cncn2Cc2ccc(Br)cc2)nc1-c1cccc2ccccc12 [Compound 154]	0.03
O=C(c1ccc(Cl)cc1)c1cn(Cc2c[nH]cn2)cc1-c1cccc2ccccc12 [Compound 56]	0.04
Cc1ccc(Cn2cncc2Cn2cc(C(=O)N3CCOCC3)c(-c3cccc4ccccc34)c2)cc1 [Compound 137]	0.0017

Form field: reported IC50 of COC(=O)[C@H](CC(C)C)NC(=O)c1cn(Cc2cncn2Cc2ccc(C#N)cc2)cc1-c1cccc2ccccc12 [Compound 102]
0.45

* * *

# test-system: Ras farnesyl transferase (Rattus norvegicus, UniProt Q02293+Q04631)
# Construct: endogenous in cells; host or cells: Rat2 fibroblasts transformed with H-Ras or with an H-Ras/K-Ras C-terminus fusion
# method-notes: In vivo (cellular) inhibitory activity for Ras farnesyl transferase, Rat2 cell line transformed with fused protein of H-Ras substituted with polybasic lysine domain at C-terminus of K-Ras
# Assay type: cell-based
# settings: Rat2 cell line transformed with H-Ras fused with polybasic lysine domain of K-Ras C-terminus; concentration inhibiting 50% of farnesyl bonding; read-out: K-Ras CIC50
# Description: In the present experiment, Rat2 cell line which expresses C-Harvey-Ras protein having transforming activity and Rat2 cell line (Korean patent application No. 97-14409) which is transformed with fused protein of H-Ras substituted with polybasic lysine domain at C-terminus of K-Ras were used. The experiment was performed by the modified Declue's method (Declue. J. E. et al., Cancer Research, 1991, 51, 712). Hereinafter, the experimental method will be described in more detail. […]
pIC50: −log10 of the molar value.
Listed molecules paired with reported pIC50

molecule	test-system	pIC50
O=C(c1ccc(Br)cc1)c1cn(Cc2c[nH]cn2)cc1-c1cccc2ccccc12 [Compound 49]	Ras farnesyl transferase (Rattus norvegicus, UniProt Q02293+Q04631)	> 4.70
COCCN(C)C(=O)c1cn(Cc2cncn2C(C)c2ccccc2)cc1-c1cccc2ccccc12 (stereo in doubt) [Compound 8]	Ras farnesyl transferase (Rattus norvegicus, UniProt Q02293+Q04631)	4.30 to 5.00
O=C(c1cn(Cc2c[nH]cn2)cc1-c1cccc2ccccc12)N1CCSC1 [Compound 90]	Ras farnesyl transferase (Rattus norvegicus, UniProt Q02293+Q04631)	4.00 to 5.00
CN1CCN(C(=O)c2cn(Cc3cncn3CCc3ccc4ccccc4c3)cc2-c2cccc3ccccc23)CC1 [Compound 42]	Ras farnesyl transferase (Rattus norvegicus, UniProt Q02293+Q04631)	4.30 to 5.00
COCCN(C)C(=O)c1cn(Cc2cncn2CCC(C)C)cc1-c1cccc2ccccc12 [Compound 120]	Ras farnesyl transferase (Rattus norvegicus, UniProt Q02293+Q04631)	> 4.70

Form field: reported pIC50 of O=C(c1ccc(-c2ccccc2)cc1)c1cn(Cc2c[nH]cn2)cc1-c1cccc2ccccc12 [Compound 66]
4.00 to 5.00

And the next one, O=C(c1cn(Cc2c[nH]cn2)cc1-c1cccc2ccccc12)N1CCSCC1 [Compound 86] ?
< 4.30

* * *

# test-system: Ras farnesyl transferase (Rattus norvegicus, UniProt Q02293+Q04631)
# Construct: endogenous in cells; host or cells: Rat2 fibroblasts transformed with H-Ras or with an H-Ras/K-Ras C-terminus fusion
# method-notes: In vivo (cellular) inhibitory activity for Ras farnesyl transferase, Rat2 cell line transformed with fused protein of H-Ras substituted with polybasic lysine domain at C-terminus of K-Ras
# Type: cell-based
# settings: Rat2 cell line transformed with H-Ras fused with polybasic lysine domain of K-Ras C-terminus; concentration inhibiting 50% of farnesyl bonding; read-out: K-Ras CIC50
pIC50: −log10 of the molar value.
Listed molecules paired with reported pIC50

line-notation	endpoint-result
O=C(c1sc(Cc2cncn2Cc2ccc(Cl)cc2)nc1-c1cccc2ccccc12)N1CCOCC1	< 4.30
COCCN(C)C(=O)c1cn(Cc2cncn2CCc2ccc(C)cc2)cc1-c1cccc2ccccc12	4.30 to 5.00

Form field: reported pIC50 of `O=C(c1cn(Cc2cncn2CCc2ccccc2)cc1-c1cccc2ccccc12)N1CCOCC1`
4.30 to 5.00

And the next one, `COc1cccc(C(=O)c2cn(Cc3c[nH]cn3)cc2-c2cccc3ccccc23)c1` ?
4.00 to 5.00

These entries and their values trace back to patent US6472526B1.
